Reported IC50 by item:
Test system: monoclonal antibody Sol-48
Assay: competitive inhibition ELISA (c-ELISA), monoclonal antibody Sol-48
Assay type: binding, mouse
Conditions: Sol-48 (IgG2a); ± one standard deviation
Numbers only here, please. The scale is ppb.

# molecule, system_name, output_unit, IC50
rows = [
    ("C[C@H]1CC[C@@H]2[C@@H](C)[C@H]3[C@H](C[C@H]4[C@@H]5CC=C6C[C@@H](O)CC[C@]6(C)[C@H]5CC[C@]34C)N2C1 [solanidine]", "monoclonal antibody Sol-48", "ppb", 18),
]

Could you tell me which IC50 is on file for C[C@H]1CC[C@@H]2[C@@H](C)[C@H]3[C@H](C[C@H]4[C@@H]5CC=C6C[C@@H](O[C@@H]7O[C@H](CO)[C@H](O[C@@H]8O[C@@H](C)[C@H](O)[C@@H](O)[C@H]8O)[C@H](O)[C@@H]7O[C@@H]7O[C@@H](C)[C@@H](O)[C@@H](O)[C@H]7O)CC[C@]6(C)[C@H]5CC[C@]34C)N2C1 [α-chaconine] ?
323

Could you tell me which IC50 is on file for C[C@H]1CC[C@@H]2[C@@H](C)[C@H]3[C@H](C[C@H]4[C@@H]5CC=C6C[C@@H](O[C@@H]7O[C@H](CO)[C@H](O)[C@H](O[C@@H]8O[C@H](CO)[C@@H](O)[C@H](O)[C@H]8O)[C@H]7O[C@@H]7O[C@@H](C)[C@H](O)[C@@H](O)[C@H]7O)CC[C@]6(C)[C@H]5CC[C@]34C)N2C1 [α-solanine] ?
436

###

Test system: monoclonal antibody Sol-91
Experiment: competitive inhibition ELISA (c-ELISA), monoclonal antibody Sol-91
Type: binding, mouse
Settings: Sol-91 (IgG2a); ± one standard deviation
readout: IC50

# compound, system_name, IC50
measured = [
    ("C[C@H]1CC[C@@H]2[C@@H](C)[C@H]3[C@H](C[C@H]4[C@@H]5CC=C6C[C@@H](O[C@@H]7O[C@H](CO)[C@H](O)[C@H](O[C@@H]8O[C@H](CO)[C@@H](O)[C@H](O)[C@H]8O)[C@H]7O[C@@H]7O[C@@H](C)[C@H](O)[C@@H](O)[C@H]7O)CC[C@]6(C)[C@H]5CC[C@]34C)N2C1 [α-solanine]", "monoclonal antibody Sol-91", "104 ± 18 ppb"),
    ("C[C@H]1CC[C@@H]2[C@@H](C)[C@H]3[C@H](C[C@H]4[C@@H]5CC=C6C[C@@H](O)CC[C@]6(C)[C@H]5CC[C@]34C)N2C1 [solanidine]", "monoclonal antibody Sol-91", "36 ± 5.7 ppb"),
]

We now examine a further compound.
Checklist item: IC50 tested on monoclonal antibody Sol-91, entry C[C@H]1CC[C@@H]2[C@@H](C)[C@H]3[C@H](C[C@H]4[C@@H]5CC=C6C[C@@H](O[C@@H]7O[C@H](CO)[C@H](O[C@@H]8O[C@@H](C)[C@H](O)[C@@H](O)[C@H]8O)[C@H](O)[C@@H]7O[C@@H]7O[C@@H](C)[C@@H](O)[C@@H](O)[C@H]7O)CC[C@]6(C)[C@H]5CC[C@]34C)N2C1 [α-chaconine] , value?
82 ± 5.2 ppb

Values compiled from patent US5614408A.
